# target_of_assay: T1, mouse tissue factor pathway inhibitor (TFPI) (mouse, UniProt O54819 29-289, limits assumed)
# T1 construct: bought; also called mTFPI; murine TFPI
# T1 sequence (looked up): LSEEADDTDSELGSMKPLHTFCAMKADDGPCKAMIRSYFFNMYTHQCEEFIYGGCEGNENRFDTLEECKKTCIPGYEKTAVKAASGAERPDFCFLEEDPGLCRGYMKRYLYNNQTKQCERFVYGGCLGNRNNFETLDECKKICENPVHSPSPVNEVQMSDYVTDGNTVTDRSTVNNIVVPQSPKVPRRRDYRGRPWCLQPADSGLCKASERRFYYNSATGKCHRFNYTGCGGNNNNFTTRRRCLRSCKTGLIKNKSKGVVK
# assay_protocol: competitive ELISA
property_name: variant/HC_K99L (ratio)
Reply numerically in ratio, unit not repeated.

Worked set:
# binder, result_unit, variant/HC_K99L
data = [
    ("2A8 HC Q1E+R30S+S35D+S55G+S56G+K99L/LC Y48F+D91L+V96W (Fab, V domains shown) VH: EVQLVESGGGLVQPGGSLRLSCAASGFTFSSYGMDWVRQAPGKGLEWVSSIRGSGGSTYYADSVKGRFTISRDNSKNTLYLQMNSLRAEDTAVYYCARLYRYWFDYWGQGTLVTVSS VL: DIELTQPPSVSVAPGQTARISCSGDNLRNYYAHWYQQKPGQAPVVVIFYDNNRPSGIPERFSGSNSGNTATLTISGTQAEDEADYYCQSWLDGVPWFGGGTKLTVLG", "ratio", 10.6),
    ("2A8 HC S35D+S55R+K99L/LC Y48F+N51V+D91W+D92S (Fab, V domains shown) VH: QVQLVESGGGLVQPGGSLRLSCAASGFTFRSYGMDWVRQAPGKGLEWVSSIRGSRSSTYYADSVKGRFTISRDNSKNTLYLQMNSLRAEDTAVYYCARLYRYWFDYWGQGTLVTVSS VL: DIELTQPPSVSVAPGQTARISCSGDNLRNYYAHWYQQKPGQAPVVVIFYDVNRPSGIPERFSGSNSGNTATLTISGTQAEDEADYYCQSWWSGVPVFGGGTKLTVLG", "ratio", 22.8),
]

Now look at this entry.
Recorded variant/HC_K99L of 2A8 HC S35D+S55R+K99L/LC N26A+Y48F+N51V+D91W (Fab, V domains shown) VH: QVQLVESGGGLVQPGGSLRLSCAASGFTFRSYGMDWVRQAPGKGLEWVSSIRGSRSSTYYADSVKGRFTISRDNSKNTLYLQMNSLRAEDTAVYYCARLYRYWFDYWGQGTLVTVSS VL: DIELTQPPSVSVAPGQTARISCSGDALRNYYAHWYQQKPGQAPVVVIFYDVNRPSGIPERFSGSNSGNTATLTISGTQAEDEADYYCQSWWDGVPVFGGGTKLTVLG , please. 4.1
